Target: hCA IX (Homo sapiens)
Construct: purchased BPS bioscience (CA, USA)
Assay: hCA IX inhibitory assay
Format: biochemical
Conditions: average ± SEM, three independent experiments; read-out: Carbonic Anhydrase (IC50, nM) CA-IX

[
  {
    "Entry Smiles": "CCCN(c1cc(C)on1)S(=O)(=O)c1ccc(N)cc1",
    "IC50 (nM)": 0.042
  }
]

----------
Target: recombinant Human Carbonic Anhydrase I (Homo sapiens, UniProt P00915)
Construct: purchased R and D system (MN, USA)
Sequence (P00915 whole entry): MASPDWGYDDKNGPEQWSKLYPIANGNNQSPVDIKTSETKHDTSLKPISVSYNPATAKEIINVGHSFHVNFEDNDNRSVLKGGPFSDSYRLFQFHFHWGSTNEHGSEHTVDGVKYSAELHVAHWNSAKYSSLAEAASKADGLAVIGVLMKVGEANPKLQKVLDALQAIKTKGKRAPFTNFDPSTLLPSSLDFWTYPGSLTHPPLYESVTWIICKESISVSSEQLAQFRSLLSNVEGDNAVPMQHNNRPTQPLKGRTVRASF
Test: CA1 inhibitory assay (4-nitrophenyl acetate esterase)
Type: biochemical
Settings: average ± SEM, three independent experiments; read-out: Carbonic Anhydrase IC50 (uM) hCA I

[
  {
    "Compound": "CCCN(c1cc(C)on1)S(=O)(=O)c1ccc(N)cc1 [S3]",
    "Unit": "µM",
    "IC50": 0.08
  },
  {
    "Compound": "Cc1cc(NS(=O)(=O)c2ccc(NC(=O)c3ccc(Cl)cc3)cc2)no1 [S9]",
    "Unit": "µM",
    "IC50": 0.121
  },
  {
    "Compound": "C=CCN(c1cc(C)on1)S(=O)(=O)c1ccc(N)cc1 [S2]",
    "Unit": "µM",
    "IC50": 0.177
  },
  {
    "Compound": "Cc1ccc(C(=O)Nc2ccc(S(=O)(=O)Nc3cc(C)on3)cc2)cc1 [S8]",
    "Unit": "µM",
    "IC50": 1.02
  }
]
